# method.summary: Biodegradability by manometric respirometry test (OECD guideline No. 301F)
# measurement.context: OECD 301F manometric respirometry; oxygen consumption of theory
attribute.measured: Biodegradation in % (%)

Per the records, this molecule ( CCCCCCCCCC(C)/C=[N+](/[O-])C1CCCCC1 (stereo not shown) ) has Biodegradation in % equal to 74

Per the records, this molecule ( CCCCCCCCCC(C)/C=[N+](/[O-])Cc1ccc(OC)cc1 (stereo not shown) ) has Biodegradation in % equal to 76

Per the records, this molecule ( CCCCCCCCCC(C)/C=[N+](\C)[O-] (stereo not shown) [Example 13, (E)-N,2-dimethylundecan-1-imine oxide] ) has Biodegradation in % equal to 89

Per the records, this molecule ( CCCCCCCCCC(C)/C=[N+](/[O-])Cc1ccccc1 (stereo not shown) ) has Biodegradation in % equal to 87

Per the records, this molecule ( CCCCCCCCCC(C)/C=[N+](/[O-])C(C)C (stereo not shown) ) has Biodegradation in % equal to 70

Per the records, this molecule ( CCCCCCCCCC(C)/C=[N+](/[O-])CC(C)CCC (stereo not shown) ) has Biodegradation in % equal to 75

Per the records, this molecule ( CCCCCCCCCC(C)/C=[N+](/[O-])Cc1ccc(C)cc1 (stereo not shown) ) has Biodegradation in % equal to 83
